For reference, pIC50 measured on human HDAC2 (Homo sapiens):
Would you please state pIC50, meaning minus log10 of the concentration in mol/L, as a bare number?

[
  {
    "smiles.text": "CN1CCC2(CC1)C[C@@H]2C(=O)N[C@@H](COCCCC(=O)c1ccon1)c1[nH]c(-c2ccc(F)cc2)nc1Cl",
    "pIC50": 8.09
  },
  {
    "smiles.text": "COc1nc2ccccc2cc1-c1cnc([C@H](COCCCC(=O)c2ncco2)NC(=O)C23CCN(CC2)CC3)[nH]1",
    "pIC50": 7.53
  },
  {
    "smiles.text": "COc1cc2nc(C)ccc2cc1-c1cnc([C@H](COCCCC(=O)c2cc(C)on2)NC(=O)C2CN(C)C2)[nH]1",
    "pIC50": 8.10
  }
]

Prompt: pIC50 lookup needed for CN(C)CC(=O)N[C@@H](COCCCC(=O)c1ccon1)c1[nH]c(-c2ccc(F)cc2)nc1Cl , thanks.
Response: 6.97

Prompt: pIC50 lookup needed for COc1nc2ccccc2cc1-c1cnc([C@H](COCCCC(=O)c2ncco2)NC(=O)[C@H]2CC23CCN(C)CC3)[nH]1 , thanks.
Response: 8.01

Prompt: pIC50 lookup needed for CCC(=O)CCCOC[C@H](NC(=O)c1cncs1)c1ncc(-c2cc3ccccc3nc2OC)[nH]1 , thanks.
Response: 5.94

Prompt: pIC50 lookup needed for COc1nc2ccccc2cc1-c1cnc([C@H](COCCCC(=O)c2ncco2)NC(=O)c2cncs2)[nH]1 , thanks.
Response: 7.59
